Tested on: HCT-15
Assay: Anticancer activity against human HCT-15 cells assessed as cell growth inhibition incubated for 48 hrs by SRB assay
Format: functional
Conditions: read-out: LC50 (the source's name)
Catalogue of CC50 readings, one per entry.

molecule	CC50
NS(=O)(=O)c1ccc(Nc2nc(N/N=C/c3ccc(C(F)(F)F)cc3)nc(Nc3ccccc3)n2)cc1	52 µM
Cc1nn(-c2ccccc2)cc1/C=N/Nc1nc(Nc2ccccc2)nc(Nc2ccc(S(N)(=O)=O)cc2)n1	> 100 µM
O=c1[nH]cc(F)c(=O)[nH]1 [FLUOROURACIL]	> 100 µM
NS(=O)(=O)c1ccc(Nc2nc(N/N=C/c3ccccn3)nc(Nc3ccccc3)n2)cc1	> 100 µM
